assay: PK profiling in H1299-GFP-2xFYVE tumor-bearing mice (plasma and tumor); assay type: in vivo, mouse; conditions: female, NOD.Cg-Prkdc scid Il2rg tm1Sug/JicTac (CIEA-NOG), mouse; oral 29 mg·kg^−1, plasma and tumor, H1299-GFP-2xFYVE tumor-bearing CIEA NOG mice

| smiles_code | Cmax |
| --- | --- |
| C[C@@H]1COCCN1c1cc(N2CCCC[C@@H]2C(F)(F)F)[nH]c(=O)c1 | ~10 µM |

###

experiment: Plasma protein binding, human; type: in vitro ADME; conditions: unbound/free fraction, read-out: PPB (% unbound) human

| compound | fraction unbound |
| --- | --- |
| C[C@@H]1COCCN1c1cc(N2CCCC[C@@H]2C(F)(F)F)[nH]c(=O)c1 [SB02024] | 0.44 |

Data credit: paper PMC11306511
